- System: HepG2
- protocolText: Antiproliferative activity against human HepG2 cells after 48 hrs by MTT assay
- Type: functional, cell-based
- conditionsUsed: HepG2, 48 h
Residues, ends and D or L forms follow the SMILES beside them. *: point of attachment. OBn = c1ccc(CO*)cc1
resultType: pIC50
Here pIC50 is given on a logarithmic scale as minus log10 of the concentration in mol/L.

Form: Entry = CSCC[C@H](N)C(=O)N[C@@H](Cc1c[nH]c2ccccc12)C(=O)N[C@@H](Cc1c[nH]c2ccccc12)C(=O)OCc1ccccc1 (H-Met-Trp-Trp-OBn) | System = HepG2 | pIC50 = ____
4.61

Record: N[C@@H](Cc1c[nH]c2ccccc12)C(=O)N[C@@H](Cc1c[nH]c2ccccc12)C(=O)N[C@@H](Cc1c[nH]c2ccccc12)C(=O)OCc1ccccc1 (H-Trp-Trp-Trp-OBn)
3.79

Further, for N[C@@H](Cc1ccccc1)C(=O)N[C@@H](Cc1c[nH]c2ccccc12)C(=O)N[C@@H](Cc1c[nH]c2ccccc12)C(=O)OCc1ccccc1 (H-Phe-Trp-Trp-OBn) ?
4.39

Next compound up: N[C@@H](Cc1ccc(O)cc1)C(=O)N[C@@H](Cc1c[nH]c2ccccc12)C(=O)N[C@@H](Cc1c[nH]c2ccccc12)C(=O)OCc1ccccc1 (H-Tyr-Trp-Trp-OBn)
4.63

Follow-up item: NC(=O)CC[C@H](N)C(=O)N[C@@H](Cc1c[nH]c2ccccc12)C(=O)N[C@@H](Cc1c[nH]c2ccccc12)C(=O)OCc1ccccc1 (H-Gln-Trp-Trp-OBn)
4.58

For CC(C)[C@H](N)C(=O)N[C@@H](Cc1c[nH]c2ccccc12)C(=O)N[C@@H](Cc1c[nH]c2ccccc12)C(=O)OCc1ccccc1 (H-Val-Trp-Trp-OBn) then?
4.43

====

- Test system: K562
- protocolText: Antiproliferative activity against human K562 cells after 48 hrs by MTT assay
- Format: functional, cell-based
- conditionsUsed: K562, 48 h
Residues, ends and D or L forms follow the SMILES beside them. *: point of attachment. OBn = c1ccc(CO*)cc1
Rule for this label: yes means IC50 is less than 40 µM; no means IC50 is at least 40 µM.

Strictly below 40 µM: is that where IC50 of C[C@@H](O)[C@H](N)C(=O)N[C@@H](Cc1c[nH]c2ccccc12)C(=O)N[C@@H](Cc1c[nH]c2ccccc12)C(=O)OCc1ccccc1 (H-Thr-Trp-Trp-OBn) sits?
no

And the next one, C[C@H](N)C(=O)N[C@@H](Cc1c[nH]c2ccccc12)C(=O)N[C@@H](Cc1c[nH]c2ccccc12)C(=O)OCc1ccccc1 (H-Ala-Trp-Trp-OBn) ?
no

# iterate: N[C@@H](Cc1cnc[nH]1)C(=O)N[C@@H](Cc1c[nH]c2ccccc12)C(=O)N[C@@H](Cc1c[nH]c2ccccc12)C(=O)OCc1ccccc1 (H-His-Trp-Trp-OBn)
no

Also check N[C@@H](CCC(=O)O)C(=O)N[C@@H](Cc1c[nH]c2ccccc12)C(=O)N[C@@H](Cc1c[nH]c2ccccc12)C(=O)OCc1ccccc1 (H-Glu-Trp-Trp-OBn)
yes

Now this one: NCC(=O)N[C@@H](Cc1c[nH]c2ccccc12)C(=O)N[C@@H](Cc1c[nH]c2ccccc12)C(=O)OCc1ccccc1 (H-Gly-Trp-Trp-OBn)
no

Would you mind doing N[C@@H](CC(=O)O)C(=O)N[C@@H](Cc1c[nH]c2ccccc12)C(=O)N[C@@H](Cc1c[nH]c2ccccc12)C(=O)OCc1ccccc1 (H-Asp-Trp-Trp-OBn) as well?
no

Also, O=C(N[C@@H](Cc1c[nH]c2ccccc12)C(=O)N[C@@H](Cc1c[nH]c2ccccc12)C(=O)OCc1ccccc1)[C@@H]1CCCN1 (H-Pro-Trp-Trp-OBn) please.
no

Another molecule to check: N[C@@H](Cc1ccccc1)C(=O)N[C@@H](Cc1c[nH]c2ccccc12)C(=O)N[C@@H](Cc1c[nH]c2ccccc12)C(=O)OCc1ccccc1 (H-Phe-Trp-Trp-OBn)
no

Also NC(=O)C[C@H](N)C(=O)N[C@@H](Cc1c[nH]c2ccccc12)C(=O)N[C@@H](Cc1c[nH]c2ccccc12)C(=O)OCc1ccccc1 (H-Asn-Trp-Trp-OBn) , if possible.
yes

Cool, now CSCC[C@H](N)C(=O)N[C@@H](Cc1c[nH]c2ccccc12)C(=O)N[C@@H](Cc1c[nH]c2ccccc12)C(=O)OCc1ccccc1 (H-Met-Trp-Trp-OBn)
yes

What do we get for N[C@@H](CS)C(=O)N[C@@H](Cc1c[nH]c2ccccc12)C(=O)N[C@@H](Cc1c[nH]c2ccccc12)C(=O)OCc1ccccc1 (H-Cys-Trp-Trp-OBn) ?
yes

Let us now turn to N[C@@H](CO)C(=O)N[C@@H](Cc1c[nH]c2ccccc12)C(=O)N[C@@H](Cc1c[nH]c2ccccc12)C(=O)OCc1ccccc1 (H-Ser-Trp-Trp-OBn)
yes

Next molecule: CC(C)C[C@H](N)C(=O)N[C@@H](Cc1c[nH]c2ccccc12)C(=O)N[C@@H](Cc1c[nH]c2ccccc12)C(=O)OCc1ccccc1 (H-Leu-Trp-Trp-OBn)
yes

Could you do the same for N=C(N)NCCC[C@H](N)C(=O)N[C@@H](Cc1c[nH]c2ccccc12)C(=O)N[C@@H](Cc1c[nH]c2ccccc12)C(=O)OCc1ccccc1 (H-Arg-Trp-Trp-OBn) , please?
yes

// same read-out, input: N[C@@H](Cc1ccc(O)cc1)C(=O)N[C@@H](Cc1c[nH]c2ccccc12)C(=O)N[C@@H](Cc1c[nH]c2ccccc12)C(=O)OCc1ccccc1 (H-Tyr-Trp-Trp-OBn)
yes

Could you do the same for N[C@@H](Cc1c[nH]c2ccccc12)C(=O)N[C@@H](Cc1c[nH]c2ccccc12)C(=O)N[C@@H](Cc1c[nH]c2ccccc12)C(=O)OCc1ccccc1 (H-Trp-Trp-Trp-OBn) , please?
no

Next molecule: Nc1ccn([C@@H]2O[C@H](CO)[C@@H](O)[C@@H]2O)c(=O)n1 [CYTARABINE]
no

Then what about the molecule NCCCC[C@H](N)C(=O)N[C@@H](Cc1c[nH]c2ccccc12)C(=O)N[C@@H](Cc1c[nH]c2ccccc12)C(=O)OCc1ccccc1 (H-Lys-Trp-Trp-OBn) ?
yes

Same thing, different molecule: CC[C@H](C)[C@H](N)C(=O)N[C@@H](Cc1c[nH]c2ccccc12)C(=O)N[C@@H](Cc1c[nH]c2ccccc12)C(=O)OCc1ccccc1 (H-Ile-Trp-Trp-OBn)
yes

Follow-up entry: NC(=O)CC[C@H](N)C(=O)N[C@@H](Cc1c[nH]c2ccccc12)C(=O)N[C@@H](Cc1c[nH]c2ccccc12)C(=O)OCc1ccccc1 (H-Gln-Trp-Trp-OBn)
yes

====

- System: Mus musculus
- protocolText: Toxicity in mouse S180 cells allografted ICR mouse assessed as brain weight at 8.9 mg/kg, ip qd for 7 days relative to control
- Assay type: organism-based, CCRF S-180
- Set-up: dose 8.9 mg/kg, route intraperitoneal
- conditionsUsed: in vivo, 168 h
Residues, ends and D or L forms follow the SMILES beside them. *: point of attachment. OBn = c1ccc(CO*)cc1
resultType: Activity

NC(=O)C[C@H](N)C(=O)N[C@@H](Cc1c[nH]c2ccccc12)C(=O)N[C@@H](Cc1c[nH]c2ccccc12)C(=O)OCc1ccccc1 (H-Asn-Trp-Trp-OBn) :: Non-toxic
CSCC[C@H](N)C(=O)N[C@@H](Cc1c[nH]c2ccccc12)C(=O)N[C@@H](Cc1c[nH]c2ccccc12)C(=O)OCc1ccccc1 (H-Met-Trp-Trp-OBn) :: Non-toxic
C[C@H](N)C(=O)N[C@@H](Cc1c[nH]c2ccccc12)C(=O)N[C@@H](Cc1c[nH]c2ccccc12)C(=O)OCc1ccccc1 (H-Ala-Trp-Trp-OBn) :: Non-toxic
